Reference for the values: patent US20260000676A1

assayed system: ER (Homo sapiens (Human), UniProt P03372)
Sequence (P03372 whole entry): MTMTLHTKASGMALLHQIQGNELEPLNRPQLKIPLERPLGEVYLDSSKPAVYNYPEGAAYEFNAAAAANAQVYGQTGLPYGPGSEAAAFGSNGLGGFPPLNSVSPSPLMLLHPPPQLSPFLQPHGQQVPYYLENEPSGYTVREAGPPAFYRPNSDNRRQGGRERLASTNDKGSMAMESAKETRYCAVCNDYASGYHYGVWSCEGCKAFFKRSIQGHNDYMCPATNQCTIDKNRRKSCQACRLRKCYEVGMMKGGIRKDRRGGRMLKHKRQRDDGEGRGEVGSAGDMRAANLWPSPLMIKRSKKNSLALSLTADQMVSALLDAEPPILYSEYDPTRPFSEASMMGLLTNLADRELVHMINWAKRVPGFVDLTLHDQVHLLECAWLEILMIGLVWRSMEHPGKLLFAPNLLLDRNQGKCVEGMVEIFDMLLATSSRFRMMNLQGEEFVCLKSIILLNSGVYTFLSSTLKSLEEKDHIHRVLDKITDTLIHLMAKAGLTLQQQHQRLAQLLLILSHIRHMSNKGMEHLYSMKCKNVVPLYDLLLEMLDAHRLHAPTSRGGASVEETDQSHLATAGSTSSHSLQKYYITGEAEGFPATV
assay details: In-cell western (ICW) ER degradation assay in MCF-7 cells
Type: cell-based
experimental conditions: ER degradation, MCF7, 16 hrs

{"columns": ["compound", "assayed system", "DC50"],
 "data": [
  ["O=C1CC[C@H](N2Cc3c(ccc4c3OC[C@H]3CN(CC5CC6(CCN(c7ccc([C@H]8c9ccc(O)cc9OC[C@H]8c8ccccc8)cc7)CC6)C5)CCN43)C2=O)C(=O)N1 (single isomer, unassigned) [Compound A50]", "ER (Homo sapiens (Human), UniProt P03372)", "1 to 10 nM"],
  ["COc1cc(N2CCC(CN3CCN(c4ccc(C(=O)NC5CCC(=O)NC5=O)nc4)CC3)CC2)c(F)cc1[C@H]1c2ccc(O)cc2OC[C@H]1c1ccccc1 (stereo partly shown) [Compound A109]", "ER (Homo sapiens (Human), UniProt P03372)", "10 to 100 nM"],
  ["O=C1CCC(Nc2ccc(C3CCN(CC4CCN(c5ccc([C@@H]6c7ccc(O)cc7OC[C@@H]6c6ccccc6)cc5)CC4)CC3)c(F)c2)C(=O)N1 (single isomer, unassigned) [Compound A72]", "ER (Homo sapiens (Human), UniProt P03372)", "> 100 nM"],
  ["O=C1CCC(N2Cc3cc4c(cc3C2=O)OC[C@@H]2CN(CC3CCN(c5ccc([C@H]6c7ccc(O)cc7OC[C@H]6c6ccccc6)cn5)CC3)CCN42)C(=O)N1 (single isomer, unassigned) [Compound A61]", "ER (Homo sapiens (Human), UniProt P03372)", "1 to 10 nM"],
  ["O=C1CC[C@@H](N2Cc3cc4c(cc3C2=O)OC[C@H]2CN(CC3CCC5(CC3)CN(c3ccc([C@@H]6c7ccc(O)cc7OC[C@@H]6c6ccccc6)cc3)C5)CCN42)C(=O)N1 [Compound A119]", "ER (Homo sapiens (Human), UniProt P03372)", "1 to 10 nM"],
  ["O=C1CC[C@@H](N2Cc3c(ccc4c3OC[C@H]3CN(CC5CC6(CCN(c7ccc([C@@H]8c9ccc(O)cc9OC[C@@H]8c8ccccc8)cc7)CC6)C5)CCN43)C2=O)C(=O)N1 (single isomer, unassigned) [Compound A89]", "ER (Homo sapiens (Human), UniProt P03372)", "< 1 nM"],
  ["O=C1CC[C@@H](N2Cc3c(ccc4c3OC[C@@H]3CN(C[C@H]5COC6(CCN(c7ccc([C@H]8c9ccc(O)cc9OC[C@H]8c8ccccc8)cc7)CC6)C5)CCN43)C2=O)C(=O)N1 [Compound A133]", "ER (Homo sapiens (Human), UniProt P03372)", "1 to 10 nM"]
]}
